- Study system: SIRT1 (Homo sapiens, UniProt Q96EB6)
- Method: Trp mass spectrometry assay (SIRT1 activation)
- Assay type: biochemical
- Run parameters: Trp mass spectrometry assay; EC1.5 = concentration of test compound that results in 150% activation of SIRT1
Quantity measured: Tryp AVG EC1.5 (μM)

> print(dat)
                                   compound    quantity.measured             result
1  O=C(Nc1cncc(F)c1)N1c2nc(-c3cccc(Cl)c3)ccc2N2CC[C@H]1C2 [Example 119]  Tryp AVG EC1.5 (μM)     A (EC1.5<1 μM)
2  O=C(Nc1ccncc1)N1c2nc(-c3cccc(Cl)c3)ccc2N2CC[C@H]1C2 [Example 122]  Tryp AVG EC1.5 (μM)     A (EC1.5<1 μM)
3  COc1cccc(-c2ccc3c(n2)N(C(=O)Nc2ccc(F)cn2)[C@@H]2CCN3C2)c1 [Example 205]  Tryp AVG EC1.5 (μM)  B (EC1.5 1-25 μM)
4  COc1nccc(NC(=O)N2c3nc(-c4cccc(C#N)c4)ccc3N3CC[C@H]2C3)n1 [Example 183]  Tryp AVG EC1.5 (μM)  B (EC1.5 1-25 μM)

* * *

compounds and their reported Emax
- Study system: UniProt Q96EB6
- Sequence (Q96EB6 1-747): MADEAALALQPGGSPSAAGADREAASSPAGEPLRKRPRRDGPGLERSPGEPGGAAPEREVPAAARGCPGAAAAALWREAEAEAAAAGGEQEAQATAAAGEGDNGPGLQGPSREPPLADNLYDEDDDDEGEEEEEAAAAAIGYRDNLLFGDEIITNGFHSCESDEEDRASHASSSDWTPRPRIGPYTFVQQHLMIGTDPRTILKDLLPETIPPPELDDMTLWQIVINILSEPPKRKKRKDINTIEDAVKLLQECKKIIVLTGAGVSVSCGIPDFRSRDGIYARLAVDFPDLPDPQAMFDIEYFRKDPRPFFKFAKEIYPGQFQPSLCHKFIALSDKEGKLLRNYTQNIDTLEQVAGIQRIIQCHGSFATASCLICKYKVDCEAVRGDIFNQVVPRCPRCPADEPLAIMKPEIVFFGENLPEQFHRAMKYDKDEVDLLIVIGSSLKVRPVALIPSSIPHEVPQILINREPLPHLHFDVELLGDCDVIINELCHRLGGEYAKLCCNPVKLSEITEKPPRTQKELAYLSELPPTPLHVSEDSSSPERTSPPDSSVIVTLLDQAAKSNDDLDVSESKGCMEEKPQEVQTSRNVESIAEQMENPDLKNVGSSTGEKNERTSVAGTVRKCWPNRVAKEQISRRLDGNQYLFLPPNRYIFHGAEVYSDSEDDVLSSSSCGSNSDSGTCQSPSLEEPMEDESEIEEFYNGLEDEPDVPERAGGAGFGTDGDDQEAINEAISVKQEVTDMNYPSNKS
- Method: Trp mass spectrometry assay (SIRT1 activation)
- Type: biochemical
- Run parameters: percent maximum fold activation of SIRT1; Trp peptide substrate; read-out: Tryp % Fold Act
- Protocol: Mass spectrometry based assays were used to identify modulators of SIRT1 activity. […] The peptide was labeled with the fluorophore 5TMR (excitation 540 nm/emission 580 nm) at the C-terminus. The sequence of the peptide substrate was based on p53 with several modifications. […] The Trp mass spectrometry assay was conducted as follows. […] Test compound was added at varying concentrations to this reaction mixture and the resulting reactions were monitored. […]

Take a look at these entries with their results.
> print(dat)
                                        mol    study.system  result
1  O=C(Nc1ccncn1)N1c2nc(N3CCCNCC3)ccc2N2CCC[C@H]1C2  UniProt Q96EB6  < 150%
2  COc1cc(NC(=O)N2c3nc(-c4cccc(C(F)(F)F)c4)ccc3N3CCC[C@@H]2C3)ncn1  UniProt Q96EB6  ≥ 150%
3  O=C(Nc1cccc(-c2cnco2)n1)N1c2nc(-c3cccc(C(F)(F)F)c3)ccc2N2CCC1CC2  UniProt Q96EB6  ≥ 150%

Ask: Item "O=C(Nc1ccnc(Br)c1)N1c2nc(-c3cccc(C(F)(F)F)c3)ccc2N2CC[C@H]1C2" has what recorded Emax?
Result: ≥ 150%

* * *

- Study system: full-length hSIRT1 I223A (Homo sapiens, UniProt Q96EB6, I223A)
- Construct: The following point mutants of full-length hSIRT1 were generated; His6 (C); made in house
- Sequence (Q96EB6 1-747 I223A): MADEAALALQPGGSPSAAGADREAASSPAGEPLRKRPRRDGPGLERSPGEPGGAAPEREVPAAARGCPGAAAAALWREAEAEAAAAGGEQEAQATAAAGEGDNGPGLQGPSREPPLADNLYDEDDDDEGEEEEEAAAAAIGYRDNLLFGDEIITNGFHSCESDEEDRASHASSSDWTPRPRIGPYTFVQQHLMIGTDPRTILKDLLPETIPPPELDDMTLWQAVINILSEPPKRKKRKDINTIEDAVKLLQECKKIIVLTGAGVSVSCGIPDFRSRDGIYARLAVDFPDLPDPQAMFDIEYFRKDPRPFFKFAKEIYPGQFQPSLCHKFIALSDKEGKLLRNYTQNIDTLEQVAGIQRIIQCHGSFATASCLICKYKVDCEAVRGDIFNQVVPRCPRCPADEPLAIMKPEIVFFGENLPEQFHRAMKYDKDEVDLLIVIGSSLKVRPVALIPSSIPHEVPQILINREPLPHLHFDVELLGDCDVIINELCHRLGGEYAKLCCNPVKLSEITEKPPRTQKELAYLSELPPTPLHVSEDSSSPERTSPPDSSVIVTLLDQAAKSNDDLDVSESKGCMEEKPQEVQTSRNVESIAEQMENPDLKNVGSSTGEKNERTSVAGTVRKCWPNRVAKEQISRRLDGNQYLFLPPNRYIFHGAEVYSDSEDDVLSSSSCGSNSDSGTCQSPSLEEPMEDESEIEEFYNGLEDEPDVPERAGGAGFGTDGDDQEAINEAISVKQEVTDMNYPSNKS
- Method: SIRT1 activation dose-response, OAcADPr assay with Ac-p53(W5) substrate
- Type: biochemical
- Run parameters: hSIRT1 I223A; activation dose-response, Ac-p53(W5) substrate
pEC50: −log10 of the molar value.
Quantity measured: pEC50

A. O=C(Nc1ccccn1)N1c2nc(-c3cccc(C(F)(F)F)c3)ccc2N2CC[C@H]1C2
B. Cc1cnc2c(NC(=O)N3c4nc(-c5cccc(C(F)(F)F)c5)ccc4N4CC[C@H]3C4)cccc2n1
Ask: Lower pEC50: A or B ? To answer, give the label that identifies your chosen option.
Result: A
(A: 5.26, B: 5.63)

* * *

- Study system: SIRT1 (Homo sapiens)
- Sequence (Q96EB6 1-747): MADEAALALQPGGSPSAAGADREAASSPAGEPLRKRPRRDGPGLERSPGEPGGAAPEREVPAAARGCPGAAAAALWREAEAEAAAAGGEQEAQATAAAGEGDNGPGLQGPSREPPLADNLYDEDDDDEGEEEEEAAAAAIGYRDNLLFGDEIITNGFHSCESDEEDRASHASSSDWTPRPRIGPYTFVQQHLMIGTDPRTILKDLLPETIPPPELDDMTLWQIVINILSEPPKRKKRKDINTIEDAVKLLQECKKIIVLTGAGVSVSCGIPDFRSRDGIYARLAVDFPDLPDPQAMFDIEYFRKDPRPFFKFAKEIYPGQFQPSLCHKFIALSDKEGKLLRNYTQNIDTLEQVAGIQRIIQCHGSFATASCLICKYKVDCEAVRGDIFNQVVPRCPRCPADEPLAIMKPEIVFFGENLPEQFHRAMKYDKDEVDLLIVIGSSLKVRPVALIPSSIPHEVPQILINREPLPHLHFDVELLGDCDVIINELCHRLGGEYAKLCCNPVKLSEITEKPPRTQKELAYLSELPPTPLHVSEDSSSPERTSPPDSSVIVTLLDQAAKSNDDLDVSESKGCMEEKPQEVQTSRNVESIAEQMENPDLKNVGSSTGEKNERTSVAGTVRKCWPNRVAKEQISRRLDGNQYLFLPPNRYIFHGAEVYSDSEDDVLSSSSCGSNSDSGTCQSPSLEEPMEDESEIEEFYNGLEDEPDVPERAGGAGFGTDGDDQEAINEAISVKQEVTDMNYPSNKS
- Method: Trp mass spectrometry assay (SIRT1 activation)
- Assay type: biochemical
- Run parameters: percent maximum fold activation of SIRT1; Trp peptide substrate; read-out: Tryp % Fold Act
compounds and their reported Emax

> print(dat)
                                   compound  result
1  O=C(Nc1cncc(F)c1)N1c2nc(-c3cccc(C(F)(F)F)c3)ccc2N2CCC1CC2 [Example 492]  ≥ 150%

Ask: Provide value of Emax for this record tested with SIRT1 (Homo sapiens): Cc1ccc(-c2ccc3c(n2)N(C(=O)Nc2ccncn2)[C@H]2CCCN3C2)cn1 [Example 479]
Result: ≥ 150%

Ask: Provide value of Emax for this record tested with SIRT1 (Homo sapiens): Cc1ccncc1-c1ccc2c(n1)N(C(=O)Nc1ccncn1)[C@H]1CCCN2C1 [Example 518]
Result: < 150%

Ask: Provide value of Emax for this record tested with SIRT1 (Homo sapiens): COc1cc(NC(=O)N2c3nc(-c4cccc(N5CC[C@H](F)C5)c4)ccc3N3CC[C@H]2C3)ncn1 [Example 255]
Result: ≥ 150%

The reported numbers originate from patent US9765075B2.
